# Test system: Klebsiella pneumoniae KPN+19-15
# Type: cell-based
# condition description: KPN+19-15
Bridge positions count the residues as written; N and C are the ends. Square brackets hold non-standard residues; d marks the D form. Peptide text beside a SMILES is read from it. * marks the point of attachment. dOrn = NCCC[C@@H](N)C(=O)O; Nonanoyl = CCCCCCCCC(=O)*; X1 = CC[C@H](C)CCCCC(=O)*; Heptanoyl = CCCCCCC(=O)*; Orn = NCCC[C@H](N)C(=O)O; Dab = NCC[C@H](N)C(=O)O; Dap = NC[C@H](N)C(=O)O

compound	unit tag	MIC
CCCCCCCCC(=O)N[C@@H](CCN)C(=O)N[C@H](C(=O)N[C@H](CO)C(=O)N[C@H]1CCNC(=O)[C@H]([C@@H](C)O)NC(=O)[C@H](CCN)NC(=O)[C@H](CCCN)NC(=O)[C@H]([C@@H](C)O)NC(=O)[C@@H](Cc2ccccc2)NC(=O)[C@H](CCN)NC1=O)[C@@H](C)O [Compound 80] (Nonanoyl-[Dab]T[dS][Dab][Dab][dF]T[Orn][Dab]T; lactam 4-C)	µg/mL	0.5
CCCCCCC(=O)N[C@@H](CCN)C(=O)N[C@H](C(=O)N[C@H](CCCN)C(=O)N[C@H]1CCNC(=O)[C@H]([C@@H](C)O)NC(=O)[C@H](CCN)NC(=O)[C@H](CCN)NC(=O)[C@H]([C@@H](C)O)NC(=O)[C@@H](Cc2ccccc2)NC(=O)[C@H](CCN)NC1=O)[C@@H](C)O [Compound 24] (Heptanoyl-[Dab]T[dOrn][Dab][Dab][dF]T[Dab][Dab]T; lactam 4-C)	µg/mL	0.125
CC[C@H](C)CCCCC(=O)N[C@@H](CCN)C(=O)N[C@H](C(=O)N[C@H](CO)C(=O)N[C@H]1CCNC(=O)[C@H]([C@@H](C)O)NC(=O)[C@H](CN)NC(=O)[C@H](CCN)NC(=O)[C@H]([C@@H](C)O)NC(=O)[C@@H](Cc2ccccc2)NC(=O)[C@H](CCN)NC1=O)[C@@H](C)O [Compound 81] (X1-[Dab]T[dS][Dab][Dab][dF]T[Dab][Dap]T; lactam 4-C)	µg/mL	0.5

Recorded values, source patent EP4725957A1.
